meta.source: patent US8492374B2

The reader will find reported inhibition at 1 µM values listed item by item below.
- measured.on: FLT-3 kinase (Homo sapiens, UniProt P36888)
- Construct: human FLT-3 (Arg571-Ser993); GST (N); purchased Cell Signaling Technology HTScan FLT-3 Kinase Assay Kit; host or cells: baculovirus expression system
- Sequence (P36888 571-993): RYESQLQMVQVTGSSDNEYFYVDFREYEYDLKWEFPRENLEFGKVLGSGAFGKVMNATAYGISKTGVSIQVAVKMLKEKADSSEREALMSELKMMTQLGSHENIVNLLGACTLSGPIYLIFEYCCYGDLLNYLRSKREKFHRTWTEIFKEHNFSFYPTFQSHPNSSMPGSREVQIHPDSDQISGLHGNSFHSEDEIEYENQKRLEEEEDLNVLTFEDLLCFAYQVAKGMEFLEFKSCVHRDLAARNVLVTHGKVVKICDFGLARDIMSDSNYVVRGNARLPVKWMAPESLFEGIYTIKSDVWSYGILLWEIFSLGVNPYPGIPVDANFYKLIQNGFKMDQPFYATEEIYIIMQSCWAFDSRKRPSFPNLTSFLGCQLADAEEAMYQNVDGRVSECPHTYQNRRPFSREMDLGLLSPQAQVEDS
- assay.comment: FLT-3 kinase DELFIA assay (HTScan FLT-3 Kinase Assay Kit)
- Assay type: biochemical
- assay.setup: 1 uM compound, 20 uM ATP
Expressed in %, but write only the number.

{"columns": ["compound", "inhibition at 1 µM / %"],
 "data": [
  ["O=c1[nH]c2cccccc-2c1-c1nc2cc(N3CCN(c4ncccc4[N+](=O)[O-])CC3)ccc2[nH]1", 60.5],
  ["CS(=O)(=O)N1CCCN(c2ccc3[nH]c(-c4c5cccccc-5[nH]c4=O)nc3c2)CC1", 59.2],
  ["O=c1[nH]c2cccccc-2c1-c1nc2cc(N3CCC(O)CC3)ccc2[nH]1", 92.9],
  ["O=c1[nH]c2cccccc-2c1-c1nc2cc(N3CCN(C[C@@H](O)CO)CC3)ccc2[nH]1", 88.1],
  ["CN1CCCN(C(=O)c2ccc3[nH]c(-c4c5cccccc-5[nH]c4=O)nc3c2)CC1", 64]
]}

// O=c1[nH]c2cccccc-2c1-c1nc2cc(N3CCCNCC3)ccc2n1CCCF : inhibition at 1 µM value = 21

response.value for Cc1cc(N2CCN(c3ccc4[nH]c(-c5c6cccccc-6[nH]c5=O)nc4c3)CC2)nc(N(C)C)n1 (field: inhibition at 1 µM) = 95.3

Reported inhibition at 1 µM for O=C(Nc1ccc(F)c(Cl)c1)Nc1ccc2[nH]c(-c3c4cccccc-4[nH]c3=O)nc2c1 was 24

Reported inhibition at 1 µM of O=c1[nH]c2cccccc-2c1-c1nc2cc(N3CCCN(c4ncccc4[N+](=O)[O-])CC3)ccc2[nH]1 : 37.7

Sure, the documented inhibition at 1 µM for O=c1[nH]c2cccccc-2c1-c1nc2cc(N3CCCNCC3)ccc2n1CCF is 36.6

// O=c1[nH]c2cccccc-2c1-c1nc2cc(N3CCN(CCF)CC3)ccc2[nH]1 : inhibition at 1 µM value = 69.2

Sure, the documented inhibition at 1 µM for O=c1[nH]c2cccccc-2c1-c1nc2cc(O)ccc2[nH]1 is 68.5
